# Test Name: Octanol-buffer distribution (log D7.4)
# Type: physicochemical
# Conditions Used: 1-octanol/PBS; mixing time 10 min, octanol/PBS pH 7.4
Measured Parameter: logD at 10 min
Give bare numbers.

Worked examples, 3 compounds total:
O=C1CC[C@@]2(O)[C@H]3Cc4ccc(O)c5c4[C@@]2(CCN3CC2CC2)[C@H]1O5 [Naltrexone, naltrexone] = 0.86
N=C(N)Nc1ccc2[nH]c3c(c2c1)C[C@@]1(O)[C@H]2Cc4ccc(O)c5c4[C@@]1(CCN2CC1CC1)[C@H]3O5 = -0.11
CC(C)[C@@H](CN1CC[C@@](C)(c2cccc(O)c2)[C@@H](C)C1)NC(=O)[C@H]1Cc2ccc(O)cc2CN1 = 1.9

Problem: I am curious: what logD at 10 min value has been reported for `Oc1ccc2c3c1O[C@H]1c4[nH]c5c(c4C[C@@]4(O)[C@@H](C2)N(CC2CC2)CC[C@]314)C[C@@]1(O)[C@H]2Cc3ccc(O)c4c3[C@@]1(CCN2CC1CC1)[C@H]5O4` ?
Solution: 1.59
